B1: library; a variant is named by its letters at N, in order (parent)
chain: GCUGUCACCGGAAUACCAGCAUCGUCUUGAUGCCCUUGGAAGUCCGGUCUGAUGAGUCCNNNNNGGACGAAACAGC

- Variants of: B1
- Assay comment: normalized RNA/DNA level without ligand (relative to sTRSVctl = 100) (log10 (% of sTRSVctl)); higher = less ribozyme self-cleavage, higher mRNA level
- Condition details: HEK293T, reporter: mCherry (pCS4076), ligand present: no
Readout: normalized RNA/DNA level without ligand (log10)
No unit in the answer, please; the number alone is enough.

Field: example entries. Status: answers known.
Residue change	Meas value
UGGAC	1.93
ACAAC	1.86
UCCAG	1.92

Please look at the following variant next.
AUGAG yielded normalized RNA/DNA level without ligand (log10) of 1.81

Hello, the source for this data is the supplement of paper PMC6757056, in case you need it.
